// values below are reported GI50
- Tested on: DLD-1
- Protocol notes: NCI tumour cell line growth inhibition, 48 h
The source made the active and inactive calls. No stated cut-off is given here; in the data, active = GI50 up to about 1.1 µM and inactive = higher.

In the examples that follow, each entry is paired with its recorded GI50.
# Compound, Experimental system, GI50
rows = [
    ("COC(=O)/C(=N\\O)C(C(=O)C=C(C)C)C(=O)C(=O)Nc1ccccc1C (stereo unspecified)", "DLD-1", "> 100 µM (inactive)"),
    ("COc1ccc2ccnc(Cc3ccc(OCc4ccccc4)c(OC)c3)c2c1", "DLD-1", "25.5 µM (inactive)"),
    ("c1ccc2c(NCCCCCCNc3cccc4ccccc34)cccc2c1", "DLD-1", "> 100 µM (inactive)"),
]

So, COc1ccc(C(=O)C(C(=O)CCC(=O)Nc2cccc(C(F)(F)F)c2)c2ccccc2)cc1 (stereo unspecified) ? Its GI50 was > 100 µM (inactive)

So, "COc1cc(C(CC(OC)OC)=C(C#N)C#N)cc(OC)c1OC" ? Its GI50 was 3.58 µM (inactive)

So, "C=Cc1ccc(C)[n+](C[Si](C)(C)O[Si](C)(C)C)c1" ? Its GI50 was > 100 µM (inactive)

====

- System: ACHN
- Protocol notes: NCI tumour cell line growth inhibition, 48 h
The source made the active and inactive calls. No stated cut-off is given here; in the data, active = GI50 up to about 1.1 µM and inactive = higher.
// values below are reported GI50

In the examples that follow, each entry is paired with its recorded GI50.
# Compound, GI50
measured = [
    ("O=C(O)CNS(=O)(=O)c1ccc(NC(=O)c2ccc([N+](=O)[O-])cc2)cc1", "> 100 µM (inactive)"),
    ("Cc1nc2c(sc3nc4c(cc32)CCC4)c(=O)o1", "> 66.7 µM (inactive)"),
    ("CCC1=CC2Cc3nc4cc(Cl)ccc4c(N)c3C(C1)C2 (stereo unspecified)", "7.8 µM (inactive)"),
    ("NC(=O)c1cnc2sc3ccccc3n2c1=O", "> 100 µM (inactive)"),
    ("Cc1ccc(CSC(=N)Nc2ccccc2)cc1C", "33.3 µM (inactive)"),
    ("C=C1CCC2[C@@H](CCC3[C@]2(C)CCC[C@]3(C)C(=O)OC)C1CC=O (stereo partly specified)", "15.9 µM (inactive)"),
]

So, "CCn1c2ccccc2c2ccc3c(c21)C(=O)C=CC3=O" ? Its GI50 was 16.5 µM (inactive)

So, "Cc1nc2nn(C)cc2c(=O)n1/N=C/c1ccccc1" ? Its GI50 was > 100 µM (inactive)

So, "c1ccc(/N=c2\snc3scc(-c4ccccc4)n23)cc1" ? Its GI50 was 48 µM (inactive)

So, "O=C(OCCN=c1c2ccccc2ccc2ccccc12)c1ccccc1" ? Its GI50 was 97.1 µM (inactive)

So, "Cc1ccc(-c2cs/c(=N\c3c(C)n(C)n(-c4ccccc4)c3=O)n2CCO)cc1" ? Its GI50 was 46.5 µM (inactive)

====

- Tested on: U-251
- Protocol notes: NCI tumour cell line growth inhibition, 48 h
Active and inactive are the calls of the source. Cut-off read from the data, not from the text of the source: active = GI50 up to about 1.1 µM and inactive = higher.
// values below are reported GI50

# Compound, GI50
rows = [
    ("CC(=O)/C(=C\\n1c(=S)[nH]c2ccc([N+](=O)[O-])cc21)C(=O)Nc1ccccc1C", "> 100 µM (inactive)"),
    ("CCOC(=O)CC(C)C(C#N)(OP1(=O)OC(c2ccccc2)C(C)N1C)c1ccccc1 (centres undefined)", "49 µM (inactive)"),
    ("N#Cc1cc2cc3c4c(c2oc1=O)CCCN4CCC3", "> 100 µM (inactive)"),
]

So, "Cc1[nH]c(O)nc1C(=O)c1ccc(-n2ccnc2)cc1" ? Its GI50 was > 100 µM (inactive)
